Experiment: Toxoplasma gondii ME49Luc growth in HeLa cells, luciferase, no IFN-y, primary screen (AID 1259421)
Settings: T. gondii ME49Luc in HeLa, 72 h, hits give low values, concentration not given here
About 610 (9.5%) of roughly 6,400 compounds were called active. The sample as a whole holds a higher share of actives than the screen did.
API: label(entry) gives 1 if the entry's activity change, negative = inhibition is strictly smaller than -20%; on equality or larger values it gives -1.

{"columns": ["compound", "className"],
 "data": [
  ["O=C(CS(=O)C(c1ccccc1)c1ccccc1)NO (stereo not given)", -1],
  ["C/C1=C/C[C@@H](/C(C)=C/c2csc(C)n2)OC(=O)C[C@H](O)C(C)(C)C(=O)[C@H](C)[C@@H](O)[C@@H](C)CCC1", 1],
  ["COC(=O)N1CCN(C(=O)Cc2ccc(Cl)c(Cl)c2)C(CN2CCCC2)C1 (stereo not given)", -1],
  ["Cc1nccc2c1[nH]c1ccccc12", -1],
  ["c1ccc2c(c1)[nH]c1cnccc12", -1],
  ["Cc1c2ccncc2c(C)c2c1[nH]c1ccccc12", 1],
  ["C/C(=C\\c1csc(C)n1)[C@H]1C[C@@H]2O[C@]2(C)CCC[C@H](C)[C@H](O)[C@@H](C)C(=O)C(C)(C)[C@H](O)CC(=O)O1", 1],
  ["O=C(O)C(=O)CBr", 1],
  ["CCN1CCN(C(=O)Cc2ccc(Nc3ncc(F)c(Nc4ccc(C(=O)Nc5ccccc5Cl)cc4)n3)cc2)CC1", 1],
  ["C[C@]12CCC(=O)C(=O)C1CC[C@@H]1[C@@H]2CC[C@]2(C)C(=O)CC[C@@H]12 (stereo not given in full)", -1]
]}

###

Test: Toxoplasma gondii ME49Luc growth in HeLa cells, luciferase, no IFN-y, primary screen (AID 1259421)
Settings: T. gondii ME49Luc in HeLa, 72 h, hits give low values, concentration not given here
Screen size: about 6,400 compounds; about 610 (9.5%) were called active. Only a selection was taken, and actives are over-represented in it overall.

{"columns": ["compound", "unitName", "activity change, negative = inhibition"],
 "data": [
  ["C[C@@H]1CN(Cc2ccc(F)cc2)CCN1C(=O)COc1ccc(Cl)cc1NC(N)=O", "%", -3.05],
  ["CC1(C)C(=O)N(c2ccc(C#N)c(C(F)(F)F)c2)C(=O)N1CCCCO", "%", 4.23],
  ["COC[C@H]1OC(=O)c2coc3c2[C@@]1(C)C1=C(C3=O)C2CCC(=O)[C@@]2(C)C[C@H]1OC(C)=O (stereo not given in full)", "%", -5.28],
  ["O=C(O)C(Cl)Cl", "%", 30.7],
  ["C#Cc1cccc2c1c(C(=O)c1ccc(Cn3c(C)nc4cnccc43)c(F)c1)cn2C(=O)N(C)C", "%", -7.53]
]}

###

Experiment: Toxoplasma gondii ME49Luc growth in HeLa cells, luciferase, no IFN-y, primary screen (AID 1259421)
Conditions: T. gondii ME49Luc in HeLa, 72 h, concentration not given here
The whole screen tested about 6,400 compounds, of which about 610 (9.5%) were called active. Rule as the data show it: active = activity change below about -70%; inconclusive = no clear call, values can overlap the other calls; inactive = above that. The full list was thinned out, with actives kept by preference.
Labels: label 1 (active), label 0 (inactive)

{"columns": ["compound", "className"],
 "data": [
  ["C=CCN1CCC23c4c5ccc(O)c4OC2C(=O)CCC3(O)C1C5 (stereo not given)", "label 0"],
  ["CCN(CC)CCOC(=O)C(C)(c1ccccc1)c1ccccc1", "label 0"],
  ["Oc1ccc2c3c1OC1[C@@H](O)CC[C@@]4(O)[C@@H](C2)N(CC2CCC2)CC[C@]314 (stereo not given in full)", "label 0"],
  ["Oc1c(I)cc(I)cc1I", "label 0"],
  ["CC(C)(C)c1cc(C=C(C#N)C#N)cc(Br)c1O", "label 0"],
  ["COC(=O)C[C@@](O)(CCC(C)(C)O)C(=O)O[C@@H]1C(OC)=C[C@]23CCCN2CCc2cc4c(cc2[C@@H]13)OCO4", "label 1"],
  ["CCCC(C)C1(CC)C(=O)NC(=O)NC1=O (stereo not given)", "label 0"],
  ["NC[C@H](CC(=O)O)c1ccc(Cl)cc1", "label 0"],
  ["CN1CCc2cc3c(cc2C1O)OCO3 (stereo not given)", "label 0"],
  ["CCC1/C=C/C=C/C[C@H](C)[C@@H](O)[C@](C)(O)C(=O)[C@@H](C)[C@H](O)[C@@H](C)C(=O)[C@H](C)[C@@H](O)[C@H](C)/C=C/C(=O)OC2[C@@H](C)C(CC1)OC1(CC[C@@H](C)C(C[C@H](C)O)O1)[C@@H]2C (stereo not given in full)", "label 1"]
]}

###

Experiment: Toxoplasma gondii ME49Luc growth in HeLa cells, luciferase, no IFN-y, primary screen (AID 1259421)
Details: T. gondii ME49Luc in HeLa, 72 h, hits give low values, concentration not given here
The whole screen tested about 6,400 compounds, of which about 610 (9.5%) were called active. Only a selection was taken, and actives are over-represented in it overall.
readoutLabel: activity change, negative = inhibition (%)

{"columns": ["molecule", "experimentalValue"],
 "data": [
  ["NC(=O)C[S@@](=O)C(c1ccccc1)c1ccccc1", 3.02],
  ["COc1ccc2c(c1)[C@]13CCCC[C@H]1[C@H](C2)N(C)CC3", 16.4],
  ["COc1cc2cc(c1Cl)N(C)C(=O)C[C@H](OC(=O)C(C)C)[C@]1(C)O[C@H]1[C@H](C)[C@@H]1C[C@@](O)(NC(=O)O1)[C@H](OC)/C=C/C=C(/C)C2", -83.8],
  ["CCOC(=O)c1ncn2c1C1CCCN1C(=O)c1cc(OC)ccc1-2 (stereo not given)", 4.31],
  ["CCCCCCN1CCN(c2cccc(Cl)c2)CC1", 9.58]
]}

###

Test: Toxoplasma gondii ME49Luc growth in HeLa cells, luciferase, no IFN-y, primary screen (AID 1259421)
Details: T. gondii ME49Luc in HeLa, 72 h, hits give low values, concentration not given here
Screen size: about 6,400 compounds; about 610 (9.5%) were called active. The entries come from a sample that favours actives as a whole.
readoutLabel: activity change, negative = inhibition (%)

{"columns": ["molecule", "experimentalValue"],
 "data": [
  ["Cc1c(C(=O)c2cccc3ccccc23)c2cccc3c2n1[C@@H](CN1CCOCC1)CO3", 46.7],
  ["ClC=C(Cl)Cl", 8.81],
  ["CC1=C[C@H]2[C@]3(O)[C@H](C)[C@@H](O)[C@@]4(O)[C@H]([C@@H]3C=C(CO)C[C@]2(O)C1=O)C4(C)C", -3.08],
  ["CC(C)(c1ccc(OCC2CO2)cc1)c1ccc(OCC2CO2)cc1 (stereo unspecified)", 9.89],
  ["CN1C(=O)C(O)N=C(c2ccccc2)c2cc(Cl)ccc21 (stereo unspecified)", 18.5],
  ["Cc1ccccc1-n1c(CF)nc2ccc(N)cc2c1=O", 11.5],
  ["CCCCC1(C2CCCC2)Cc2cc(OCCCC(=O)O)c(Cl)c(Cl)c2C1=O (stereo unspecified)", -6.67],
  ["Nc1ccc([As](=O)(O)O)cc1", 2.94],
  ["Cc1nnc2n1-c1ccc(Cl)cc1C(c1ccccc1Cl)=NC2", 18.7],
  ["CCCn1c(C)c(C(=O)c2cccc3ccccc23)c2ccccc21", 93.6],
  ["CN(C)[C@@H]1C(=O)C(C(N)=O)C(=O)[C@@]2(O)C(=O)C3C(=O)c4c(O)cccc4[C@@](C)(O)C3[C@H](O)C12 (stereo partly specified)", -0.0524]
]}

###

Test: Toxoplasma gondii ME49Luc growth in HeLa cells, luciferase, no IFN-y, primary screen (AID 1259421)
Conditions: T. gondii ME49Luc in HeLa, 72 h, hits give low values, concentration not given here
The campaign covered roughly 6,400 compounds. About 610 (9.5%) were called active. The sample holds actives, similar compounds and a random draw of the others, so the mix is not that of the screen.
Collected activity change, negative = inhibition values appear next to each entry.
readoutLabel: activity change, negative = inhibition

{"columns": ["compound", "experimentalValue"],
 "data": [
  ["CN1C2CCC1CC(OC(c1ccccc1)c1ccccc1N)C2 (configuration not stated)", "16.3% (inactive)"],
  ["C[C@]12CC[C@H](O)C[C@H]1CC[C@@H]1[C@@H]2CC[C@]2(C)[C@@](O)(c3ccoc3)CC[C@]12O", "2.9% (inactive)"],
  ["CCCC[N+]1(C)[C@@H]2CC(OC(=O)[C@@H](CO)c3ccccc3)C[C@H]1[C@@H]1O[C@@H]12 (some centres not stated)", "2.27% (inactive)"],
  ["CC(=O)C1CCC2C3CCC4C[C@H](O)CCC4(C)C3C[C@H](O)C12C (some centres not stated)", "3.84% (inactive)"],
  ["O=C(O)c1ccccn1.O=C(O)c1ccccn1.O=C(O)c1ccccn1.[Cr]", "10.5% (inactive)"],
  ["COc1cc([C@@H]2c3cc4c(cc3[C@H](OC(C)=O)[C@H]3COC(=O)[C@H]23)OCO4)cc(OC)c1OC", "-81.6% (active)"],
  ["C/C(=C\\c1csc(C)n1)[C@@H]1C[C@@H]2O[C@@H]2CCC[C@H](C)[C@H](O)[C@@H](C)C(=O)C(C)(C)[C@@H](O)CC(=O)O1", "-69.4% (inactive)"],
  ["COc1cc([C@@H]2c3cc4c(cc3[C@@H](O)C3COC(=O)C32)OCO4)cc(OC)c1O (some centres not stated)", "-8.26% (inactive)"],
  ["C=CCN1CC[C@]2(C)c3cc(O)ccc3CC1[C@@H]2C", "17.7% (inactive)"],
  ["CC(C)(C)[C@]1(O)C[C@@H]2OC(=O)C[C@@]23C(=O)O[C@@H]2OC(=O)[C@H](O)C213 (some centres not stated)", "7.37% (inactive)"],
  ["CC(=O)OCC(=O)[C@H]1CC[C@H]2[C@@H]3CC[C@H]4C[C@H](O)CC[C@]4(C)[C@H]3C(=O)C[C@]12C", "-8.47% (inactive)"],
  ["CC[C@@H]1[C@@H](C)O[C@@](O)([C@@H](C)[C@H](O)[C@H](C)[C@H]2OC(=O)/C=C/C=C/[C@H](C)[C@H]([C@@H](C)[C@@H](O)[C@H](C)[C@@]3(O)C[C@@H](O[C@H]4C[C@H](O)[C@H](O)[C@H](C)O4)[C@H](CC)[C@@H](C)O3)OC(=O)/C=C/C=C/[C@H]2C)C[C@H]1O[C@H]1C[C@H](O)[C@H](O)[C@H](C)O1", "-83.6% (active)"],
  ["CN[C@@H](C)[C@H](O)c1ccccc1", "-0.966% (inactive)"],
  ["CC(=O)[C@H]1CC[C@H]2[C@@H]3CC[C@H]4C[C@H](O)CC[C@]4(C)[C@H]3C(=O)C[C@]12C", "12.1% (inactive)"],
  ["CCCCC/C=C\\C/C=C\\C/C=C\\C/C=C\\CCCC(=O)Nc1ccc(O)cc1", "-78.5% (active)"],
  ["c1cc(Cc2cnc[nH]2)ccn1", "4.56% (inactive)"],
  ["CN=C(NS(=O)(=O)c1ccc(Cl)cc1)N1C[C@H](c2ccccc2)C(c2ccc(Cl)cc2)=N1", "38.2% (inactive)"],
  ["CC(=O)OC1CC[C@@]2(C)C(CCC3C2CC[C@]2(C)C(C4=CC(=O)OC4)C(OC(C)=O)CC32O)C1 (some centres not stated)", "-91.6% (active)"],
  ["COc1cc([C@@H]2c3cc4c(c(O)c3C[C@H]3COC(=O)[C@@H]32)OCO4)cc(OC)c1OC", "-71.9% (active)"],
  ["CCc1cccc(CC)c1NC1=NCCN1", "5.66% (inactive)"],
  ["C[C@@H]1CC[C@@]2(OC1)O[C@H]1C[C@H]3[C@@H]4CC=C5C[C@H](O[C@@H]6O[C@@H](CO)[C@@H](O[C@@H]7O[C@@H](C)[C@H](O)[C@@H](O)[C@@H]7O)[C@H](O)[C@H]6O[C@@H]6O[C@@H](C)[C@H](O)[C@@H](O)[C@H]6O)CC[C@]5(C)[C@@H]4CC[C@]3(C)[C@@H]1[C@H]2C", "-18.3% (inactive)"],
  ["CC(=O)[C@H]1CC[C@H]2[C@@H]3CC[C@H]4C[C@H](O)CC[C@]4(C)[C@H]3CC[C@]12C", "2.36% (inactive)"],
  ["CC(=O)N(C)c1cccc(-c2ccnc3c(C(=O)c4cccs4)cnn23)c1", "42.5% (inactive)"],
  ["C[Se]C[C@H](N)C(=O)O", "10.4% (inactive)"],
  ["COC1C(O)CC(OC2C(O)CC(OC3C(O)CC(OC4CCC5(C)C(CCC6[C@@H]5CC(O)C5(C)C(C7=CC(=O)OC7)CCC65O)C4)OC3C)OC2C)OC1C (some centres not stated)", "-82.4% (active)"],
  ["C/C(=C\\c1csc(C)n1)[C@H]1C[C@@H]2O[C@]2(C)CCC[C@H](C)[C@H](O)[C@@H](C)C(=O)C(C)(C)[C@@H](O)CC(=O)O1", "-66.8% (inactive)"],
  ["CC(C)[C@@H](CN1CC[C@@](C)(c2cccc(O)c2)[C@@H](C)C1)NC(=O)[C@H]1Cc2ccc(O)cc2CN1", "7.74% (inactive)"],
  ["C#CCN1C(C)=C(C(=O)CCO)C(c2cccc(-n3oo3)c2)C(C(=O)OC)=C1C (configuration not stated)", "11.7% (inactive)"],
  ["COc1ccc2c(c1OC)C(=O)O[C@@H]2[C@H]1c2cc3c(cc2CCN1C)OCO3", "2.97% (inactive)"],
  ["CC(C)(O)C(=O)Nc1ccc([N+](=O)[O-])c(C(F)(F)F)c1", "5.88% (inactive)"],
  ["C=C(C)[C@@H]1[C@H]2OC(=O)[C@H]1[C@]1(O)C[C@H]3O[C@]34C(=O)O[C@H]2[C@]14C", "2.63% (inactive)"],
  ["COc1ccc(/C=C/C(=O)CC(=O)/C=C/c2ccc(OC)c(OC)c2)cc1OC", "2.29% (inactive)"]
]}
